The measured values listed here are drawn from patent US11241441B2.

protocol text: Single 100 mg oral dose study in ESRD and normal renal function subjects: pharmacokinetics and tolerability
Format: in vivo, human
stated conditions: human, in vivo, po, 100 mg, single 100 mg oral dose; Normal
attribute measured: AUC(0-t) (ng·h/mL)
Record the value in ng·h/mL, omitting the unit from your answer.

### Prompt Could you share which AUC(0-t) value was measured for Cc1ccc(F)cc1C(=O)Nc1ccc(C(=O)N2Cc3cccn3Cc3ccccc32)c(Cl)c1 ?
### Response 1200

---

protocol text: Single 100 mg oral dose study in ESRD and normal renal function subjects: pharmacokinetics and tolerability
Assay type: in vivo, human
stated conditions: human, in vivo, po, 100 mg, single 100 mg oral dose; ESRD
attribute measured: AUC(0-t) (ng·h/mL)
Record the value in ng·h/mL, omitting the unit from your answer.

### Prompt Could you share which AUC(0-t) value was measured for Cc1ccc(F)cc1C(=O)Nc1ccc(C(=O)N2Cc3cccn3Cc3ccccc32)c(Cl)c1 ?
### Response 809

---

protocol text: Single 100 mg oral dose study in ESRD and normal renal function subjects: pharmacokinetics and tolerability
Format: in vivo, human
stated conditions: human, in vivo, po, 100 mg, single 100 mg oral dose; Normal; read-out: t1/2 Median (converted)
attribute measured: half-life (h)
Record the value in h, omitting the unit from your answer.

### Prompt Could you share which half-life value was measured for Cc1ccc(F)cc1C(=O)Nc1ccc(C(=O)N2Cc3cccn3Cc3ccccc32)c(Cl)c1 ?
### Response 12

---

protocol text: Measured Log P
Type: physicochemical
attribute measured: logP

1. Cc1ccccc1C(=O)Nc1ccc(C(=O)N2CCCC(O)c3cc(Cl)ccc32)c(C)c1 (centres unmarked)
> 3

Pending compound:
### Prompt Could you share which logP value was measured for Cc1ccc(F)cc1C(=O)Nc1ccc(C(=O)N2Cc3cccn3Cc3ccccc32)c(Cl)c1 ?
### Response 1

---

protocol text: Single 100 mg oral dose study in ESRD and normal renal function subjects: pharmacokinetics and tolerability
Format: in vivo, human
stated conditions: human, in vivo, po, 100 mg, single 100 mg oral dose; ESRD
attribute measured: AUC(0-inf) (ng·h/mL)
Record the value in ng·h/mL, omitting the unit from your answer.

### Prompt Could you share which AUC(0-inf) value was measured for Cc1ccc(F)cc1C(=O)Nc1ccc(C(=O)N2Cc3cccn3Cc3ccccc32)c(Cl)c1 ?
### Response 856

---

protocol text: Single 100 mg oral dose study in ESRD and normal renal function subjects: pharmacokinetics and tolerability
Assay type: in vivo, human
stated conditions: human, in vivo; single 100 mg oral dose; Normal; read-out: tmax Median
attribute measured: Tmax (h)
Record the value in h, omitting the unit from your answer.

### Prompt Could you share which Tmax value was measured for Cc1ccc(F)cc1C(=O)Nc1ccc(C(=O)N2Cc3cccn3Cc3ccccc32)c(Cl)c1 ?
### Response 1
